# test-system: Polyunsaturated fatty acid 5-lipoxygenase (Homo sapiens)
# protocol-summary: Inhibitory activity against lipoxygenase (LO) at 1 uM concentration
Each entry below carries its recorded inhibition.
measurement-type: inhibition

* CC(C)(C)c1cc(/C=C/c2cccnc2)cc(C(C)(C)C)c1O | 26%
* COc1ccc(/C=C/c2cc(C(C)(C)C)c(O)c(C(C)(C)C)c2)cc1 | 18%
* CC(C)(C)c1cc(/C=C/c2cccs2)cc(C(C)(C)C)c1O | 25%
* CCC(C)(C)c1cc(/C=C/c2cccs2)cc(C(C)(C)CC)c1O | 10%
* CC(C)c1cc(/C=C/c2cccs2)cc(C(C)C)c1O | 82%
* COc1ccc(/C=C/c2cc(C(C)(C)C)c(O)c(C(C)(C)C)c2)cc1OC | 12%
* CC(C)(C)c1cc(/C=C/c2ccsc2)cc(C(C)(C)C)c1O | 9%
* CC(C)(C)c1cc(CCc2cccnc2)cc(C(C)(C)C)c1O | 13%
* CC(C)(C)c1cc(C(=O)c2cccs2)cc(C(C)(C)C)c1O | 17%
* CC(C)c1cc(/C=C/c2cccnc2)cc(C(C)C)c1O | 73%
* CC(C)(C)c1cc(/C=C/c2ccc(Cl)s2)cc(C(C)(C)C)c1O | 19%

* * *

Each entry below carries its recorded inhibition.
# test-system: Polyunsaturated fatty acid 5-lipoxygenase (Homo sapiens) (UniProt P09917)
# Sequence (whole entry): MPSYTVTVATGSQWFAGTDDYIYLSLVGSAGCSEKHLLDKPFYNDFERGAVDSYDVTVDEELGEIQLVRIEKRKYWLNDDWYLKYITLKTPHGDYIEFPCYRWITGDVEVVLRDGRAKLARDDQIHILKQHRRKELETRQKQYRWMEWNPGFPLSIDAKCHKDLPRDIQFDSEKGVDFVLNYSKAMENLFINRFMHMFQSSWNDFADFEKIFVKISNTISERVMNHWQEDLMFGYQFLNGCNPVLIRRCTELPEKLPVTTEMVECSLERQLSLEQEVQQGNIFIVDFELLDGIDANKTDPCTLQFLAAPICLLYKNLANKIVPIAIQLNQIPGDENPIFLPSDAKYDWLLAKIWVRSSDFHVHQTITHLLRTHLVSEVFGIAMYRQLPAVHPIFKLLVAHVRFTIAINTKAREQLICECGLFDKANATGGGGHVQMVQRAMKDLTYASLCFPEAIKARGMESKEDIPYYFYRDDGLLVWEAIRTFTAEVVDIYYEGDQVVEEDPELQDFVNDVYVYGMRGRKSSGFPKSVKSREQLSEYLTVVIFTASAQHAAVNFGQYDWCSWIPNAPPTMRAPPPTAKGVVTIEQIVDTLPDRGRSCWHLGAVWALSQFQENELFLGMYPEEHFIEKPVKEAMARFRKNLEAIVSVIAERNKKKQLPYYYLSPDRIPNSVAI
# protocol-summary: Inhibitory activity against lipoxygenase (LO) at 10 uM concentration
measurement-type: inhibition (%)

* CC(C)(C)c1cc(C/C=C/c2cccs2)cc(C(C)(C)C)c1O | 49
* CC(C)(C)c1cc(/C=C/c2ccc(Cl)s2)cc(C(C)(C)C)c1O | 28
* CC(C)c1cc(/C=C/c2cccnc2)cc(C(C)C)c1O | 87
* CC(C)(C)c1cc(/C=C/c2ccccn2)cc(C(C)(C)C)c1O | 88
* CC(C)(C)c1cc(/C=C/C(=O)c2ccsc2)cc(C(C)(C)C)c1O | 91
* Cc1cc(/C=C/c2cccnc2)cc(C(C)(C)C)c1O | 85
* COc1ccc(/C=C/c2cc(C(C)(C)C)c(O)c(C(C)(C)C)c2)cc1 | 12
* CC(C)(C)c1cc(/C=C/c2cccnc2)cc(C(C)(C)C)c1O | 84
* CC(C)(C)c1cc(CCc2cccnc2)cc(C(C)(C)C)c1O | 63
* CC(C)(C)c1cc(/C=C/c2ccsc2)cc(C(C)(C)C)c1O | 81
* CC(C)(C)c1cc(/C=C/c2cccnc2)ccc1O | 81
* CC(C)(C)c1cc(/C=C/c2cccc(C(F)(F)F)c2)cc(C(C)(C)C)c1O | 22
* COc1ccc(/C=C/c2cc(C(C)(C)C)c(O)c(C(C)(C)C)c2)cc1OC | 20
* CC(C)(C)c1cc(C(=O)c2cccs2)cc(C(C)(C)C)c1O [PRIFELONE] | 82
* CC(C)(C)c1cc(/C=C/c2ccncc2)cc(C(C)(C)C)c1O | 6
* CC(C)(C)c1cc(/C=C/c2cccs2)cc(C(C)(C)C)c1O | 88
* CC(C)(C)c1cc(C(=O)/C=C/c2cccs2)cc(C(C)(C)C)c1O | 59
